// reported log10 MIC for each item listed
system: S. pneum 6303; test: MIC, agar incorporation method; format: cell-based, Streptococcus pneumoniae; settings: S. pneum 6303; agar incorporation
In our notation, the value equals log10 of MIC in µg/mL.

-- ask Return log10 MIC for the following compound: `CC(=O)NC[C@H]1CN(c2ccc(N3CCN(C(=O)c4ccc(Br)o4)CC3)c(F)c2)C(=O)O1`
-- reply 0.00

-- ask Return log10 MIC for the following compound: `CC(=O)NC[C@H]1CN(c2ccc(N3CCN(Cc4ccc(Br)s4)CC3)c(F)c2)C(=O)O1`
-- reply 0.30

-- ask Return log10 MIC for the following compound: `CC(=O)NC[C@H]1CN(c2ccc(N3C[C@@H]4[C@H](C3)[C@H]4N(C)C(=O)c3ccc(Br)o3)c(F)c2)C(=O)O1`
-- reply 0.90

-- ask Return log10 MIC for the following compound: `CC(=O)NC[C@H]1CN(c2ccc(N3CCN(Cc4ccc(C=NN)o4)CC3)c(F)c2)C(=O)O1`
-- reply 0.90

-- ask Return log10 MIC for the following compound: `CC(=O)NC[C@H]1CN(c2ccc(N3CCN(Cc4ccc([N+](=O)[O-])o4)CC3)c(F)c2)C(=O)O1.Cl`
-- reply 0.00

-- ask Return log10 MIC for the following compound: `CC(=O)NC[C@H]1CN(c2ccc(N3C[C@@H]4[C@H](C3)[C@H]4N(C)Cc3ccc([N+](=O)[O-])s3)c(F)c2)C(=O)O1`
-- reply 0.60

Values compiled from patent US6956040B2.
